These data points were gathered from patent US20250186614A1.

# Test system: Jurkat cells
# protocolDescription: Tacrolimus dose response of FKBP13-AcGFP-mCherry constructs stably transduced into Jurkat cells, GFP MFI by flow cytometry
# Type: cell-based
# conditionSummary: tacrolimus dose response, Jurkat cells stably transduced (FIG. 10); Table 5
In this section, each of the molecules is paired with its reported Fold Change.

Some solved cases for reference:
FKBP-097: FKBP13 DRD Q72R, Q84E, A117H, E100S; SEQ ID NO: 47 (protein, Description of sequence: FKBP13-AcGFP-mCherry Fusion; Construct Name: FKBP-097; FKBP13 DRD in Construct : FKBP13 (mutated to match FKBP12 active site Q72R Q84E A117H) (DRD - E100S)) HCPIKSRKGDVLHMHYTGKLEDGTEFDSSLPRNQPFVFSLGTGEVIKGWDQGLLGMCEGSKRKLVIPSELGYGERGHPPKIPGGATLVFEVELLKIER; 36.75
FKBP-084: FKBP13 trunc2 DRD Q72R, Q84E, A117H, M54A; SEQ ID NO: 34 (protein, truncated (trunc2); Description of sequence: FKBP13-AcGFP-mCherry Fusion; Construct Name: FKBP-084; FKBP13 DRD in Construct : FKBP13 trunc2 (mutated to match FKBP12 active site Q72R Q84E A117H) (DRD - M54A)) PIKSRKGDVLHAHYTGKLEDGTEFDSSLPRNQPFVFSLGTGEVIKGWDQGLLGMCEGEKRKLVIPSELGYGERGHPPKIPGGATLVFEVELLKIER; 12.42
FKBP-044: FKBP13 DRD Q72R, Q84E, A117H, M54A; SEQ ID NO: 7 (protein, Description of sequence: FKBP13-AcGFP-mCherry Fusion; Construct Name: FKBP-044; FKBP13 DRD in Construct : FKBP13 (mutated to match FKBP12 active site - Q72R Q84E A117H) (DRD - M54A)) HCPIKSRKGDVLHAHYTGKLEDGTEFDSSLPRNQPFVFSLGTGEVIKGWDQGLLGMCEGEKRKLVIPSELGYGERGHPPKIPGGATLVFEVELLKIER; 11.805

Recorded Fold Change (molecule FKBP-095: FKBP13 DRD Q72R, Q84E, A117H, P122S; SEQ ID NO: 45 (protein, Description of sequence: FKBP13-AcGFP-mCherry Fusion; Construct Name: FKBP-095; FKBP13 DRD in Construct : FKBP13 (mutated to match FKBP12 active site Q72R Q84E A117H) (DRD - P122S)) HCPIKSRKGDVLHMHYTGKLEDGTEFDSSLPRNQPFVFSLGTGEVIKGWDQGLLGMCEGEKRKLVIPSELGYGERGHPPKISGGATLVFEVELLKIER ): 31.4
